# growth inhibition listing for each entry below
Assay: NCI Yeast Anticancer Drug Screen. Data for the mlh1 rad18 strain (AID 175)
Details: S. cerevisiae mlh1 rad18 strain growth inhibition; at 50.0 µM; active compounds read high
About 79,000 compounds went through this panel and 15% of them were active in at least one assay; those are over-represented in the sample as a whole.

>  <Compound>
OCC(CCl)(CCl)CCl

>  <growth inhibition [%]>
41

$$$$
>  <Compound>
O=C1CCC(=O)N2C(=O)CCC(=O)N12

>  <growth inhibition [%]>
3.45

$$$$
>  <Compound>
N#Cc1nc(NC(=O)c2ccccc2C(=O)O)c(C#N)[nH]1

>  <growth inhibition [%]>
-29.3

$$$$
>  <Compound>
O=S1(=O)OCCOS(=O)(=O)C1F

>  <growth inhibition [%]>
-16.1

$$$$
>  <Compound>
O=C1NC(=O)C(F)(F)C1(F)F

>  <growth inhibition [%]>
4.35

$$$$
>  <Compound>
C=C1C(=O)O[C@H]2[C@H]1CC(=O)/C(C)=C/CC[C@@]1(C)O[C@@H]21

>  <growth inhibition [%]>
7

$$$$
>  <Compound>
O=N[O-].O=N[O-].[Co].[NH-]CC[N-]CC[N-]CC[NH-]

>  <growth inhibition [%]>
11

$$$$
>  <Compound>
C[C@@H](Oc1ccc(Oc2cnc3ccc(Cl)cc3n2)cc1)C(=O)O

>  <growth inhibition [%]>
3.95

$$$$
>  <Compound>
NC(=S)c1cccc(C(N)=S)n1

>  <growth inhibition [%]>
26.6

$$$$
>  <Compound>
COC(=O)OCC1OC(OC(C)=O)C2OC(=O)OC12 (stereo not drawn)

>  <growth inhibition [%]>
-3.15

$$$$
>  <Compound>
NC(=O)C(=CN1C(=O)/C(=C/c2ccccc2O)SC1=S)C(N)=O

>  <growth inhibition [%]>
-24.1

$$$$
>  <Compound>
O=C(O)C(Cc1ccsc1)C(=O)O

>  <growth inhibition [%]>
12.4

$$$$
>  <Compound>
O=C1c2ccccc2C(=O)N1CC1(C(=O)O)NCCS1(=O)=O (stereo not drawn)

>  <growth inhibition [%]>
10.1

$$$$
>  <Compound>
CC(C)(C)C1=CC(=O)OC1(Cl)C(C)(C)C (stereo not drawn)

>  <growth inhibition [%]>
-9.05

$$$$
>  <Compound>
CC1(c2ccccc2)CC(c2cccc([N+](=O)[O-])c2)=NO1 (stereo not drawn)

>  <growth inhibition [%]>
23.4

$$$$
>  <Compound>
Nc1ccn([C@H]2CO[C@@H](CO)O2)c(=O)n1

>  <growth inhibition [%]>
-22.2

$$$$
>  <Compound>
CCCC(C)(C#N)c1ccc(OC)cc1 (stereo not drawn)

>  <growth inhibition [%]>
-11.8

$$$$
>  <Compound>
C#CCOc1ccc(O)c(C(=O)OCCCOC(=O)c2cc(OCC#C)ccc2O)c1

>  <growth inhibition [%]>
15.1

$$$$
>  <Compound>
COC(=O)NS(=O)(=O)CC(=O)c1ccccc1

>  <growth inhibition [%]>
9.9

$$$$
>  <Compound>
CCOC(=O)C(C#N)C1CC2CCC1C2 (stereo not drawn)

>  <growth inhibition [%]>
-56.8

$$$$
>  <Compound>
CCCCOC(=O)C(C)OC(=O)COc1ccc(Cl)cc1C (stereo not drawn)

>  <growth inhibition [%]>
-1.05

$$$$
>  <Compound>
O=C(Nc1ccc(Cl)cc1)c1ccc(C(=O)Nc2ccc(Cl)cc2)cc1

>  <growth inhibition [%]>
-24.9

$$$$
>  <Compound>
CCN(CC)C(=O)c1cc([N+](=O)[O-])c(=O)n2c1[nH]c1ccccc12

>  <growth inhibition [%]>
-5.85

$$$$
>  <Compound>
CCOC(=O)C1=NN(c2ccccc2)C(=O)/C1=C\N1CC(=O)NC1=S

>  <growth inhibition [%]>
-32.1

$$$$
>  <Compound>
O=C(Oc1ccc2ccccc2c1CN1CCOCC1)c1ccc([N+](=O)[O-])cc1

>  <growth inhibition [%]>
52

$$$$
>  <Compound>
O=[N+]([O-])/C(N=Nc1ccc2ccccc2c1Br)=N/Nc1ccc2ccccc2c1Br

>  <growth inhibition [%]>
13.2

$$$$
>  <Compound>
C=C1C2CC[C@@]3(CC[C@@H]4[C@@]5(C)CCC[C@@]4(CN4CCO[C@H]45)[C@@H]3C2)[C@@H]1O

>  <growth inhibition [%]>
-5.5

$$$$
>  <Compound>
Nc1ccccc1C(F)(F)F

>  <growth inhibition [%]>
8.25

$$$$
>  <Compound>
CCOS(=O)(=O)c1ccc(F)c([N+](=O)[O-])c1

>  <growth inhibition [%]>
-2.1

$$$$
>  <Compound>
O=C(/C=N\O)c1ccccc1[N+](=O)[O-]

>  <growth inhibition [%]>
-19.1

$$$$
>  <Compound>
CCOC(=O)C(Cc1ccc(N=NN(C)C)cc1)NC(=O)CC1c2ccccc2-c2ccccc21 (stereo not drawn)

>  <growth inhibition [%]>
8.3

$$$$
>  <Compound>
CC1=CC(C)(C)NC(=S)N1c1cccc2c(S(=O)(=O)O)cccc12

>  <growth inhibition [%]>
6.3

$$$$
>  <Compound>
Cc1ccc[nH]c1=O

>  <growth inhibition [%]>
2.4

$$$$
>  <Compound>
C(CCC[Si]12OCCN(CCO1)CCO2)CC[Si]12OCCN(CCO1)CCO2

>  <growth inhibition [%]>
1.1

$$$$
>  <Compound>
CCOC(=O)C(Cc1ccc(O)cc1)NC(=O)C(CSC(c1ccccc1)(c1ccccc1)c1ccccc1)NC(c1ccccc1)(c1ccccc1)c1ccccc1 (stereo not drawn)

>  <growth inhibition [%]>
9.55

$$$$
>  <Compound>
CCOc1ccc2cc3c(nc2n1)[nH]c1ccccc13

>  <growth inhibition [%]>
11.1

$$$$
>  <Compound>
Cc1cc2[nH]c3c(C#N)c(O)c(C(C)C)c(=O)n3c2cc1C

>  <growth inhibition [%]>
11.2

$$$$
>  <Compound>
CCOC(=O)C1(Br)C(c2ccccc2)NC(=O)N(C2OC(COC(=O)c3ccccc3)C(OC(=O)c3ccccc3)C2OC(=O)c2ccccc2)C1(C)Br (stereo not drawn)

>  <growth inhibition [%]>
-22.8

$$$$
>  <Compound>
C=C(CCCC(C)OC(C)OCC)[Si](C)(C)C (stereo not drawn)

>  <growth inhibition [%]>
-37.9

$$$$
>  <Compound>
N#CCCN(CCC#N)c1ccc(/C=C2\N=C(c3cc([N+](=O)[O-])ccc3Cl)OC2=O)cc1

>  <growth inhibition [%]>
-7.15

$$$$
>  <Compound>
Clc1ccc(N=Nc2ccccn2)cc1

>  <growth inhibition [%]>
-12.2

$$$$
>  <Compound>
COc1cc(OC)c(C(C)=O)c(O)c1OC

>  <growth inhibition [%]>
15.2

$$$$
>  <Compound>
N#CC(NC(=O)NCCCl)c1ccccc1 (stereo not drawn)

>  <growth inhibition [%]>
2.6

$$$$
>  <Compound>
O=C(CN1CCOCC1)NC(=O)c1ccccc1

>  <growth inhibition [%]>
-10.7

$$$$
>  <Compound>
CC(C)C(=O)C(F)(F)F

>  <growth inhibition [%]>
-2.3

$$$$
>  <Compound>
CC(O)CNC(C)(C)CN (stereo not drawn)

>  <growth inhibition [%]>
-4

$$$$
>  <Compound>
Cc1ccc(NC(=O)Nc2ccc(Cl)c(Cl)c2)c(C)c1

>  <growth inhibition [%]>
-20.9

$$$$
>  <Compound>
COc1ccc(/C=C2\N=C(c3ccccc3)OC2=O)c(Br)c1OC(C)=O

>  <growth inhibition [%]>
14.3

$$$$

Origin of measurements: PubChem BioAssay (NCI)
